experimentalProtocol: Half-maximal inhibition of [125I]gastrin binding to guinea pig gastric glands
Lab note - cut at 30 µM for IC50: true if strictly below, false if not.

Lab note: IC50 threshold 30 µM. Does this compound come in strictly under it? Cn1c(C(=O)NC2N=C(c3ccccc3F)c3ccccc3NC2=O)cc2ccccc21 (stereo not given)
true

A record lists `CN1C(=O)[C@H](NC(=O)[C@H](N)Cc2ccccc2)N=C(c2ccccc2)c2ccccc21` . Is its IC50 below 30 µM?
false

Regarding O=C(NC1N=C(c2ccccc2)c2ccccc2NC1=O)c1ccc(-c2ccccc2)cc1 (stereo not given) , kindly confirm whether its IC50 is beneath 30 µM.
false

I wonder whether O=C(NC1N=C(c2ccccc2F)c2ccccc2NC1=O)c1cc2cc(O)ccc2[nH]1 (stereo not given) has IC50 below 30 µM. Can you tell?
true

I'd appreciate it if you could check whether O=C(O)CN1C(=O)C(NC(=O)c2cc3ccccc3[nH]2)N=C(c2ccccc2F)c2ccccc21 (stereo not given) has IC50 smaller than 30 µM.
true

I'd appreciate it if you could check whether `CN1C(=O)[C@@H](NC(=O)c2ccc(C(F)(F)F)cc2)N=C(c2ccccc2F)c2ccccc21` has IC50 smaller than 30 µM.
true

Determine if `CN1C(=O)[C@H](NC(=O)c2ccccc2Cl)N=C(c2ccccc2)c2ccccc21` shows IC50 strictly lower than 30 µM.
true

Given COc1ccc(C(=O)NC2N=C(c3ccccc3F)c3ccccc3NC2=O)cc1 (stereo not given) , is recorded IC50 strictly lower than 30 µM?
true

A record lists `CC(C)CCC(=O)N[C@H]1N=C(c2ccccc2)c2ccccc2N(C)C1=O` . Is its IC50 below 30 µM?
false

###

experimentalProtocol: Half-maximal inhibition of [125I]gastrin binding to guinea pig gastric glands
pIC50: −log10 of the molar value.
Lab note: anything with pIC50 at or over 5 counts as T; the rest go in F.

Assess whether reported pIC50 for CN1C(=O)C(NC(=O)c2cc3ccccc3[nH]2)N=C(c2ccccc2F)c2ccccc21 (stereo unspecified) sits at 5 or higher.
T

Check this compound for pIC50 at or above 5: `CN1C(=O)[C@@H](NC(=O)c2ccccc2Cl)N=C(c2ccccc2)c2ccccc21`
F

Evaluate O=C(NC1N=C(c2ccccc2)c2ccccc2NC1=O)c1ccc(C(F)(F)F)cc1 (stereo unspecified) : pIC50 at minimum 5?
F

Given the entry O=C(NC1N=C(c2ccccc2F)c2ccccc2NC1=O)c1ccc[nH]1 (stereo unspecified) , answer whether its pIC50 meets or surpasses 5.
F

Evaluate O=C(NC1N=C(c2ccccc2F)c2ccccc2NC1=O)c1ccc(Cl)cc1 (stereo unspecified) : pIC50 at minimum 5?
F

Is reported pIC50 greater than or equal to 5 here: O=C(NC1N=C(c2ccccc2)c2ccccc2NC1=O)c1ccc2ccccc2c1 (stereo unspecified)
F

###

experimentalProtocol: Half-maximal inhibition of [125I]gastrin binding to guinea pig gastric glands
propertyMeasured: pIC50
Please keep in mind that pIC50 is minus log10 of the molar concentration; only the number is needed.

Briefly, pIC50 measured for O=C(NC1N=C(c2ccccc2)c2ccccc2NC1=O)C1Cc2ccccc2N1 (stereo not drawn) : 3.96

Note to self: pIC50 recorded for O=C(NC1N=C(c2ccccc2F)c2ccccc2N(C(=O)c2ccc(Cl)cc2)C1=O)c1ccc(Cl)cc1 (stereo not drawn) was 6.26

Per the records, this molecule ( O=C(NC1N=C(c2ccccc2F)c2ccccc2NC1=O)c1ccccc1 (stereo not drawn) ) has pIC50 equal to 4.55

###

Provide the reported IC50 of each item.
experimentalProtocol: Half-maximal inhibition of [125I]gastrin binding to guinea pig gastric glands

Just so you know, measured IC50 for CC1(C(=O)NC2N=C(c3ccccc3F)c3ccccc3NC2=O)C=Cc2ccccc21 (centres undefined) came out at > 10 µM

CCCCCc1ccc(C(=O)NC2N=C(c3ccccc3)c3ccccc3NC2=O)cc1 (centres undefined) has a reported IC50 of > 100 µM

Entry CN1C(=O)C(N(C)C(=O)c2ccccc2Cl)N=C(c2ccccc2)c2ccccc21 (centres undefined) ; IC50 = > 100 µM

In plain terms, O=C1Nc2ccccc2C(c2ccccc2)=NC1NCCc1c[nH]c2ccccc12 (centres undefined) has a documented IC50 of > 100 µM
